// provenance: ChEMBL document CHEMBL3044728

# Tested on: Phytophthora infestans
# Assay Notes: Antifungal activity against Phytophthora infestans assessed as inhibition at 25 mg/L relative to control
# Type: functional
Property Label: inhibition at 25 µg/mL (%)
Return type: number; implicit unit %.

Give inhibition at 25 µg/mL for this entry on Phytophthora infestans: "CO/N=C(/C(=O)OC)c1ccccc1COc1cc(-c2ccccc2Cl)nn1C"
100

Specify the recorded inhibition at 25 µg/mL for "CCc1ccc(-c2nn(C)c(OCc3ccccc3/C(=N\OC)C(=O)OC)c2C)cc1" , system: Phytophthora infestans.
100

Report inhibition at 25 µg/mL from Phytophthora infestans testing of "CO/N=C(/C(=O)OC)c1ccccc1COc1c(C)c(-c2cc(C)ccc2C)nn1C"
100

Please indicate recorded inhibition at 25 µg/mL of "CO/N=C(/C(=O)OC)c1ccccc1COc1c(C)c(-c2ccc(C(C)(C)C)cc2)nn1C" measured with Phytophthora infestans.
0

Specify the recorded inhibition at 25 µg/mL for "CO/N=C(/C(=O)OC)c1ccccc1COc1cc(-c2ccc(Cl)cc2)nn1C" , system: Phytophthora infestans.
80

Look up Phytophthora infestans data: inhibition at 25 µg/mL of "CNC(=O)/C(=N/OC)c1ccccc1COc1cc(-c2ccccc2Cl)nn1C" , then report it.
100

Jot down inhibition at 25 µg/mL (Phytophthora infestans) of "CNC(=O)/C(=N/OC)c1ccccc1COc1c(C)c(-c2ccc(OCC(F)(F)F)cc2)nn1C" .
100

Tell me inhibition at 25 µg/mL of "CO/N=C(/C(=O)OC)c1ccccc1COc1c(C)c(-c2ccc(C)c(C)c2)nn1C" when tested on Phytophthora infestans.
100

Recall the reported inhibition at 25 µg/mL of "CNC(=O)/C(=N/OC)c1ccccc1COc1cc(-c2ccc(C(C)(C)C)cc2)nn1C" when tested on Phytophthora infestans.
100

Recall the reported inhibition at 25 µg/mL of "CO/N=C(/C(=O)OC)c1ccccc1COc1cc(-c2ccc(C(C)(C)C)cc2)nn1C" on Phytophthora infestans and write it down.
100

###

# System: Phytophthora infestans
# Assay Notes: Antifungal activity against Phytophthora infestans assessed as inhibition at 25 mg/L relative to control
# Format: functional
Below, each entry is listed alongside its reported inhibition at 25 µg/mL.
Please answer using a numeric value trailed by its unit.

| Chemical String | System Tested | inhibition at 25 µg/mL |
| --- | --- | --- |
| CNC(=O)/C(=N/OC)c1ccccc1COc1c(C)c(-c2ccc(C(C)(C)C)cc2)nn1C | Phytophthora infestans | 100% |

Specify inhibition at 25 µg/mL for "CO/N=C(/C(=O)OC)c1ccccc1COc1cc(-c2ccccc2)nn1C" , system Phytophthora infestans.
0%

Please report inhibition at 25 µg/mL with Phytophthora infestans for item "CO/N=C(/C(=O)OC)c1ccccc1COc1cc(-c2ccc(C)c(C)c2)nn1C" .
100%

Look up Phytophthora infestans data: inhibition at 25 µg/mL of "CO/N=C(/C(=O)OC)c1ccccc1COc1c(C)c(-c2ccc(C)cc2)nn1C" , then report it.
100%

State the measured inhibition at 25 µg/mL (Phytophthora infestans) of "CNC(=O)/C(=N/OC)c1ccccc1COc1c(C)c(-c2ccc(C)cc2C)nn1C"
100%

###

Entries and their inhibition at 25 µg/mL values follow.
# System: Pyricularia oryzae
# Assay Notes: Antifungal activity against Magnaporthe oryzae assessed as inhibition at 25 mg/L relative to control
# Type: functional
Answer with a number only, understood to be in %.

| Chemical String | System Tested | Numeric Result |
| --- | --- | --- |
| CNC(=O)/C(=N/OC)c1ccccc1COc1cc(-c2ccccc2)nn1C | Pyricularia oryzae | 0 |
| CCc1ccc(-c2nn(C)c(OCc3ccccc3/C(=N\OC)C(=O)OC)c2C)cc1 | Pyricularia oryzae | 50 |
| CNC(=O)/C(=N/OC)c1ccccc1COc1cc(-c2ccc(C(C)(C)C)cc2)nn1C | Pyricularia oryzae | 100 |
| CNC(=O)/C(=N/OC)c1ccccc1COc1cc(-c2ccc(OC)cc2)nn1C | Pyricularia oryzae | 100 |
| CNC(=O)/C(=N/OC)c1ccccc1COc1cc(-c2ccc(C)c(C)c2)nn1C | Pyricularia oryzae | 100 |

Return value of inhibition at 25 µg/mL for input "CO/N=C(/C(=O)OC)c1ccccc1COc1cc(-c2ccc(C(C)(C)C)cc2)nn1C" , no commentary.
100

Return inhibition at 25 µg/mL for the following compound: "CO/N=C(/C(=O)OC)c1ccccc1COc1c(C)c(-c2ccc(Cl)cc2)nn1C"
50

For "CO/N=C(/C(=O)OC)c1ccccc1COc1cc(-c2ccccc2OC)nn1C" , write its inhibition at 25 µg/mL.
100

Supply inhibition at 25 µg/mL value. Item: "CCc1ccc(-c2nn(C)c(OCc3ccccc3/C(=N\OC)C(=O)NC)c2C)cc1"
100

Hello, please tell me recorded inhibition at 25 µg/mL for this one: "CO/N=C(/C(=O)OC)c1ccccc1COc1c(C)c(-c2ccc(C(C)(C)C)cc2)nn1C"
50

Look up inhibition at 25 µg/mL of "CNC(=O)/C(=N/OC)c1ccccc1COc1c(C)c(-c2cc(C)ccc2C)nn1C" and report it.
100

// fetch inhibition at 25 µg/mL given entry "CO/N=C(/C(=O)OC)c1ccccc1COc1cc(-c2ccc(Cl)cc2)nn1C"
80

Provide measured inhibition at 25 µg/mL value, entry: "CNC(=O)/C(=N/OC)c1ccccc1COc1c(C)c(-c2ccc(C)cc2C)nn1C"
100

Give the reported value of inhibition at 25 µg/mL for this record: "CO/N=C(/C(=O)OC)c1ccccc1COc1c(C)c(-c2ccc(C)c(C)c2)nn1C"
100

Recall and state the measured inhibition at 25 µg/mL for "CO/N=C(/C(=O)OC)c1ccccc1COc1c(C)c(-c2ccc(OCC(F)(F)F)cc2)nn1C" .
100

Please give measured inhibition at 25 µg/mL of the following entry: "CNC(=O)/C(=N/OC)c1ccccc1COc1c(C)c(-c2ccc(OC)cc2)nn1C"
100

For the compound "CO/N=C(/C(=O)OC)c1ccccc1COc1cc(-c2ccccc2Cl)nn1C" , give its reported inhibition at 25 µg/mL.
100

Note inhibition at 25 µg/mL for the compound shown: "CNC(=O)/C(=N/OC)c1ccccc1COc1cc(-c2ccc(Cl)cc2)nn1C"
0

Provide measured inhibition at 25 µg/mL value, entry: "CNC(=O)/C(=N/OC)c1ccccc1COc1c(C)c(-c2ccc(Cl)cc2)nn1C"
0

Quick one: give measured inhibition at 25 µg/mL for "CO/N=C(/C(=O)OC)c1ccccc1COc1c(C)c(-c2cc(C)ccc2C)nn1C"
100

###

# Tested on: Pyricularia oryzae
# Assay Notes: Antifungal activity against Magnaporthe oryzae assessed as inhibition at 25 mg/L relative to control
# Type: functional
Recorded inhibition at 25 µg/mL by entry
Answer in %, number only, no unit symbol.

Examples from the recorded data:
| Chemical String | System Tested | inhibition at 25 µg/mL (%) |
| --- | --- | --- |
| CNC(=O)/C(=N/OC)c1ccccc1COc1cc(-c2ccc(C)cc2C)nn1C | Pyricularia oryzae | 100 |
| CCOc1ccc(-c2nn(C)c(OCc3ccccc3/C(=N\OC)C(=O)OC)c2C)cc1 | Pyricularia oryzae | 100 |
| CO/N=C(/C(=O)OC)c1ccccc1COc1cc(-c2ccc(OC)cc2)nn1C | Pyricularia oryzae | 0 |
| CNC(=O)/C(=N/OC)c1ccccc1COc1c(C)c(-c2ccc(C)c(C)c2)nn1C | Pyricularia oryzae | 100 |
| CO/N=C(/C(=O)OC)c1ccccc1COc1c(C)c(-c2ccc(C)cc2)nn1C | Pyricularia oryzae | 50 |

Identify the reported inhibition at 25 µg/mL for the following entry. "CO/N=C(/C(=O)OC)c1ccccc1COc1ccccc1C"
100

Give inhibition at 25 µg/mL for "CNC(=O)/C(=N/OC)c1ccccc1COc1c(C)c(-c2ccc(C(C)(C)C)cc2)nn1C"
100

Recall and state the measured inhibition at 25 µg/mL for "CO/N=C(/C(=O)OC)c1ccccc1COc1c(C)c(-c2ccc(C)cc2C)nn1C" .
100

Identify the reported inhibition at 25 µg/mL for the following entry. "CCOc1ccc(-c2nn(C)c(OCc3ccccc3/C(=N\OC)C(=O)NC)c2C)cc1"
100

Please supply the value of reported inhibition at 25 µg/mL for the item "CNC(=O)/C(=N/OC)c1ccccc1COc1cc(-c2ccccc2Cl)nn1C"
0

Determine its reported inhibition at 25 µg/mL: "CNC(=O)/C(=N/OC)c1ccccc1COc1c(C)c(-c2ccc(C)cc2)nn1C"
0

Return inhibition at 25 µg/mL for the following molecule: "CO/N=C(/C(=O)OC)c1ccccc1COc1cc(-c2ccc(C)cc2C)nn1C"
100

Determine its reported inhibition at 25 µg/mL: "CNC(=O)/C(=N/OC)c1ccccc1COc1cc(-c2ccccc2OC)nn1C"
100
